- System: HIV-IIIb
- method.summary: Antiviral assay in MT4 cells
- Format: cell-based
- measurement.parameters: Human immunodeficiency virus 1, IIIB, MT4, 120 h, MT4 cells infected with HIV-IIIb (0.004 m.o.i.), 5 days incubation, CellTiter-Glo; average over assays
measurement.name: EC50 (nM)

Some molecules with recorded EC50:
1. C[C@H]1CCO[C@]23CCC[C@H]2n2cc(C(=O)NCc4ccc(F)c(Cl)c4F)c(=O)c(O)c2C(=O)N13 | 11.8
2. O=C(NCc1ccc(F)c(Cl)c1F)c1cn2c(c(O)c1=O)C(=O)N1CCS[C@]13COCC[C@H]23 (racemic) | 1.2
3. C[C@@H]1CO[C@@]23CCC[C@@H]2n2cc(C(=O)NCc4c(F)cc(F)cc4F)c(=O)c(O)c2C(=O)N13 | 2.53
4. C[C@@H]1CO[C@@]23CCC[C@@H]2n2cc(C(=O)NCc4ccc(F)c(Cl)c4F)c(=O)c(O)c2C(=O)N13 | 4.13
5. C[C@@H]1CN2C(=O)c3c(O)c(=O)c(C(=O)NCc4ccc(F)c(Cl)c4F)cn3[C@@H]3CCC[C@@]32O1 (single isomer, unassigned) | 3.17

[a] O=C(NCc1ccc(F)c(Cl)c1F)c1cn2c(c(O)c1=O)C(=O)N1CCCC[C@]13COC[C@H]23
[b] C[C@@H]1CCO[C@@]23CCC[C@@H]2n2cc(C(=O)NCc4ccc(F)c(Cl)c4F)c(=O)c(O)c2C(=O)N13
Ask: Please indicate which item has the smaller measured EC50: a versus b Lab log: write the label of the selected item as the result.
Result: a
